tested on: 786-0 renal; test: NCI-60 one-dose screen, 48 h (100 = growth as untreated, 0 = no growth, -100 = all killed); conditions: 10 µM unless noted
Compounds without any hit were thinned out: in the full panel of roughly 83,000, 20% have a hit.
Field: label. Allowed values: Met (growth < 20%) or Not met (growth >= 20%).

Task: Does this compound meet the criterion growth < 20%? CCOc1ccc(C(=O)Nc2ncc(Cc3ccc(F)cc3)s2)cc1
Result: Not met

Task: Does the reported growth of Nc1cc(-c2c[nH]c3ccc(Br)cc23)nc2cc(-c3c[nH]c4ccc(Br)cc34)nn12 stay below 20%?
Result: Met

Task: Criterion: growth strictly below 20%. Is it met by Nc1nc(Nc2ccccc2SSc2ccccc2Nc2nc(N)nc(-c3ccccc3)n2)nc(-c2ccccc2)n1 ?
Result: Not met

Task: Bench note: check whether O=C(NNc1nc2cc(F)c(F)cc2n2c(CN3CC4CNCC4C3)ccc12)c1ncccn1 (stereo not given) shows growth below 20%
Result: Met

Task: Please state whether growth is below 20% for CNC(=O)c1c(NC(=O)c2cccc(C(F)(F)F)c2F)sc2c1CCC(=O)C2
Result: Met

* * *

I'd appreciate it if you could supply growth values for the items below.
test system: SNB-75 CNS; assay: NCI-60 one-dose screen, 48 h (100 = growth as untreated, 0 = no growth, -100 = all killed); conditions: 10 µM unless noted
This is part of a sample that, as a whole, favours compounds with a hit. Of some 83,000 tested, about 20% had one in any assay.
Express your answer in %, writing the number without its unit.

Task: What growth value was documented for this compound, Cc1ccc(S(=O)(=O)N(CC[C@@H]2C[C@H]2c2cc3ccccc3o2)S(=O)(=O)c2ccc(C)cc2)cc1 ?
Result: 89

Task: # input compound: CC1(COc2ccc3ncc(C#Cc4cncc(C(=O)Nc5cccc(C(F)(F)F)c5)c4)n3n2)COC1 ; wanted: its growth
Result: 63

Task: Please give the measured growth for this compound: NC(N)=Nc1ccc(Oc2cccc(Nc3cccc(C(F)(F)F)c3)c2)cn1
Result: 33.5

Task: Would you kindly share the measured growth for COc1cccc(N2CCN(c3ncnc4c3[nH]c3ccc(F)cc34)C[C@H]2C)c1 ?
Result: 63.2

Task: Entry CN1CCN(Cc2ccc(NC(=O)c3cncc(C#Cc4cnc5ccc(N6CCN(C)CC6)nn45)c3)cc2C(F)(F)F)CC1 : reported growth = ?
Result: -68.9

Task: Name the reported growth value associated with the compound C[C@@H]1C[C@H]2C(=O)O[C@@H](C)C(NC(=O)[C@H](Cc3cc(F)cc(F)c3)NC(=O)Nc3ccc(Cl)cc3F)C(=O)N3CCC[C@H]3C(=O)N3CCCC[C@H]3C(=O)N[C@@H](CO)C(=O)N2C1 (stereo partly drawn)
Result: 30.8

Task: Consider the compound shown here: CC(Nc1c(C#N)cnc2ccc(-c3cnc(N)nc3)cc12)c1ccccc1 (stereo not drawn) What is its recorded growth?
Result: 18.9

Task: Given the compound Cc1ccc(-c2cc3nc(C(Cl)Cl)nc(-c4ccco4)n3n2)cc1 , what is its reported growth?
Result: 66.8

Task: Please look up its growth: O=C1/C(=C/C=C/c2ccco2)SC(=S)N1c1ccccc1
Result: 101

Task: Fill in: growth of O=C(CNc1nc(-c2cccc([N+](=O)[O-])c2)cs1)Nc1cccc([N+](=O)[O-])c1 is ___
Result: 52.9

Task: Reported growth for NC(N)=Nc1ccc(Oc2cccc(Nc3ccc(Br)c(C(F)(F)F)c3)c2)cn1 : what is it?
Result: 9.31

Task: I am curious: what growth value has been reported for N=c1c2cc(-c3ccccc3)oc2ncn1/N=C/c1ccc(Cl)cc1 ?
Result: 88.7

Task: Quick check: growth of COc1cc(-c2nn(C(C)(C)C)cc2-c2ccnc(NCCCNS(=O)(=O)c3ccccc3)n2)ccc1Cl ?
Result: 49.1

Task: Any idea what growth was measured for COc1ccc(NC2=C(Cl)C(=O)c3nc(C)ccc3C2=O)cc1OC ?
Result: 111

Task: What value of measured growth is listed for Nc1nc(-c2cccc([N+](=O)[O-])c2)c(N=Nc2cccc([N+](=O)[O-])c2)s1 ?
Result: -8.63

Task: What value of measured growth is listed for O=C(Cn1cc[n+](CC(=O)c2ccc(-c3ccccc3)cc2)c1)Nc1cccc2cccnc12 ?
Result: 63.4

Task: So what does the record say about growth for COc1ccc([C@@H]2c3[nH]c4ccccc4c3C[C@H]3C(=O)N(C4CCN(CC5CCCCC5)CC4)CC(=O)N23)c(OC)c1 ?
Result: 83.2

Task: Would you mind telling me what growth value was observed for COc1ccccc1-n1cc(C#N)c(N)c1C(=O)c1ccc(Br)cc1 ?
Result: 74.5
